The reported numbers originate from patent US20200216439A1.

A collection of molecules and their measured pIC50
System tested: catalytic domain of human Bub1 (amino acids 704-1085) (Homo sapiens, UniProt O43683)
Construct: catalytic domain of human Bub1 (amino acids 704-1085); His6 (N); made in house; host or cells: Hi5 insect cells
Sequence (O43683 704-1085): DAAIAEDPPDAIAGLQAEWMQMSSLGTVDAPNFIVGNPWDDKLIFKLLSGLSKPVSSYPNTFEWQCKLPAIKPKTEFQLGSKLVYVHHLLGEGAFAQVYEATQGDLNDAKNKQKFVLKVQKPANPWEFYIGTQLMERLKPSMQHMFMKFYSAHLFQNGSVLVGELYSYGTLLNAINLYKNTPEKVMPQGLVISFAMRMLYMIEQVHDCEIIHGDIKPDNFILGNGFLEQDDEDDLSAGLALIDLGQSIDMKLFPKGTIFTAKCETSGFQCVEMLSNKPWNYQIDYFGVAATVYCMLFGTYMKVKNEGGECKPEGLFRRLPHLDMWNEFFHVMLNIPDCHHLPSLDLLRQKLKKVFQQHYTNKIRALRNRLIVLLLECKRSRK
Assay notes: Bub1 kinase assay (TR-FRET)
Assay type: biochemical
Experimental setup: TR-FRET; ATP 10 μM, peptide substrate 1 μM; 60 min at 22° C.; average or median if tested more than once; read-out: Inhibition of Bub1 kinase IC50
Experimental: […] In a typical assay 11 different concentrations of each compound (0.1 nM, 0.33 nM, 1.1 nM, 3.8 nM, 13 nM, 44 nM, 0.15 μM, 0.51 μM, 1.7 μM, 5.9 μM and 20 μM) were tested in duplicate within the same microtiter plate. […] Subsequently, the amount of product was evaluated by measurement of the resonance energy transfer from the Eu-chelate-antibody complex recognizing the Phosphoserine residue to the streptavidin-XL665 bound to the biotin moiety of the peptide. […]
Give only the number. pIC50 is defined as minus log10 of concentration in molar units.

Examples with answers:
* CC(=O)Nc1cc(-c2[nH]c3c(c2Nc2ccccc2)C(=O)CN(C(=O)CC(C)(C)O)C3)ccn1 | 7.64
* COC(=O)N1CC(=O)c2c([nH]c(-c3ccncc3OCC(F)(F)F)c2Nc2ccccc2)C1 | 7.24
* COc1cc(C(=O)Nc2cc(-c3[nH]c4c(c3Nc3ccccc3)C(=O)CN(S(=O)(=O)N(C)C)C4)ccn2)ccc1F | 8.52

Q) Can you look up the measured pIC50 of CNC(=O)N1CC(=O)c2c([nH]c(-c3ccncc3OCC3CC3)c2Nc2ccccc2)C1 for me?
A) 7.92
